Biological target: T1, recombinant rat MASP1 active protease (amino acids 302-704, C-terminal His Tag) (rat, UniProt Q8CHN8 302-704)
T1 sequence: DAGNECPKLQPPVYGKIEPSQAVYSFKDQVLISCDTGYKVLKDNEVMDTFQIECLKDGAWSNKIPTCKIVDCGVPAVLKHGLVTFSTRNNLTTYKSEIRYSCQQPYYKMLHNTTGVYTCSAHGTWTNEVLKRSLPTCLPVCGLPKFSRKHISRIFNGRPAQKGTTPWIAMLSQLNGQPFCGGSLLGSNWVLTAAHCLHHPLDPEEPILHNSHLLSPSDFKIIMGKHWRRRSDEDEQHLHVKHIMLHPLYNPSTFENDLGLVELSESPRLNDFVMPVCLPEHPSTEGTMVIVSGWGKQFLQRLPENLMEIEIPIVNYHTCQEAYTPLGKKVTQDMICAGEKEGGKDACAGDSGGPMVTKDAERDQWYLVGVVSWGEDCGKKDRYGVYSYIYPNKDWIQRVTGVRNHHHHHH
Test: cell-based or functional assay
Numbered stars: 1 amine (or outer) side, 2 acyl side, 3 side chain; on linkers, the order of the positions; unused ones are H or OH. Bridge positions count the residues as written; N and C are the ends. Square brackets hold non-standard residues; d marks the D form. Ends that are not written are not given here. * marks the point of attachment. X13 = (2S)‑2‑amino‑3‑(1-methylcyclopropyl)propanoic acid, CC1(C[C@H](N[*:1])C(=O)[*:2])CC1; X14 = (2,4-dioxoimidazolidin-1-yl)acetic acid, O=C1CN(CC(=O)*)C(=O)N1; 4‑Aminomethylphenylacetic acid = O=C(Cc1ccc(CN[*:1])cc1)[*:2]; Phe(3-COOH) = N[C@@H](Cc1cccc(C(=O)O)c1)C(=O)O; Oic = O=C(O)[C@@H]1C[C@@H]2CCCC[C@@H]2N1; βPro(3R) = O=C([C@@H]1CCN([*:1])C1)[*:2]; Pen = CC(C)(S)[C@H](N)C(=O)O; Sar = CNCC(=O)O
// rat MASP1 IC50 lookup, one value per entry

- binder: "[Sar]ICSRSLP[Oic]I[Pen]IP[βPro(3R)]-OH (disulfide 3-11; N-terminus assumed; SMILES CC[C@H](C)[C@H](NC(=O)CNC)C(=O)N[C@H]1CSSC(C)(C)[C@@H](C(=O)N[C@H](C(=O)N2CCC[C@H]2C(=O)N2CC[C@@H](C(=O)O)C2)[C@@H](C)CC)NC(=O)[C@H]([C@@H](C)CC)NC(=O)[C@@H]2C[C@@H]3CCCC[C@@H]3N2C(=O)[C@@H]2CCCN2C(=O)[C@H](CC(C)C)NC(=O)[C@H](CO)NC(=O)[C@H](CCCNC(=N)N)NC(=O)[C@H](CO)NC1=O) [Example 532: ((N-Me)G)-IC+SRSLP-(Oic)-I-(Pen)+IP-((R)-Pyrrolidine-3-carboxylic acid)-OH]"
  rat MASP1 IC50: "24.2 nM"
- binder: "[Sar]ICSRSLP[Oic]I[Pen]IP[4‑Aminomethylphenylacetic acid]-OH (disulfide 3-11; N-terminus assumed; SMILES CC[C@H](C)[C@H](NC(=O)CNC)C(=O)N[C@H]1CSSC(C)(C)[C@@H](C(=O)N[C@H](C(=O)N2CCC[C@H]2C(=O)NCc2ccc(CC(=O)O)cc2)[C@@H](C)CC)NC(=O)[C@H]([C@@H](C)CC)NC(=O)[C@@H]2C[C@@H]3CCCC[C@@H]3N2C(=O)[C@@H]2CCCN2C(=O)[C@H](CC(C)C)NC(=O)[C@H](CO)NC(=O)[C@H](CCCNC(=N)N)NC(=O)[C@H](CO)NC1=O) [Example 476: ((N-Me)G)-IC+SRSLP-(Oic)-I-(Pen)+IP-(4-Aminomethylphenylacetic acid)-OH]"
  rat MASP1 IC50: "53 nM"

Data point: X14-ICSRSLP[Oic]I[Pen]IPD-OH (disulfide 2-10; SMILES CC[C@H](C)[C@H](NC(=O)CN1CC(=O)NC1=O)C(=O)N[C@H]1CSSC(C)(C)[C@@H](C(=O)N[C@H](C(=O)N2CCC[C@H]2C(=O)N[C@@H](CC(=O)O)C(=O)O)[C@@H](C)CC)NC(=O)[C@H]([C@@H](C)CC)NC(=O)[C@@H]2C[C@@H]3CCCC[C@@H]3N2C(=O)[C@@H]2CCCN2C(=O)[C@H](CC(C)C)NC(=O)[C@H](CO)NC(=O)[C@H](CCCNC(=N)N)NC(=O)[C@H](CO)NC1=O) [Example 457: ((2,4-dioxoimidazolidin-1-yl)acetic acid)-IC+SRSLP-(Oic)-I-(Pen)+IPD-OH] ; rat MASP1 IC50 = 20 nM

The recorded rat MASP1 IC50 for entry [Sar]ICSRS[X13]PPI[Pen]IP-NH2 (disulfide 3-11; N-terminus assumed; SMILES CC[C@H](C)[C@H](NC(=O)CNC)C(=O)N[C@H]1CSSC(C)(C)[C@@H](C(=O)N[C@H](C(=O)N2CCC[C@H]2C(N)=O)[C@@H](C)CC)NC(=O)[C@H]([C@@H](C)CC)NC(=O)[C@@H]2CCCN2C(=O)[C@@H]2CCCN2C(=O)[C@H](CC2(C)CC2)NC(=O)[C@H](CO)NC(=O)[C@H](CCCNC(=N)N)NC(=O)[C@H](CO)NC1=O) [Example 197: ((N-Me)G)-IC+SRS-((2S)-2-amino-3-(1-methylcyclopropyl)propanoic acid)-PPI-(Pen)+IP-NH2] equals 100 nM

For this binder ( [Sar]ICSRSLP[Oic]I[Pen]IP[Phe(3-COOH)]-OH (disulfide 3-11; N-terminus assumed; SMILES CC[C@H](C)[C@H](NC(=O)CNC)C(=O)N[C@H]1CSSC(C)(C)[C@@H](C(=O)N[C@H](C(=O)N2CCC[C@H]2C(=O)N[C@@H](Cc2cccc(C(=O)O)c2)C(=O)O)[C@@H](C)CC)NC(=O)[C@H]([C@@H](C)CC)NC(=O)[C@@H]2C[C@@H]3CCCC[C@@H]3N2C(=O)[C@@H]2CCCN2C(=O)[C@H](CC(C)C)NC(=O)[C@H](CO)NC(=O)[C@H](CCCNC(=N)N)NC(=O)[C@H](CO)NC1=O) [Example 483: ((N-Me)G)-IC+SRSLP-(Oic)-I-(Pen)+IP-((3-Carboxy)F)-OH] ), measured rat MASP1 IC50 is 34 nM
